Biological target: T1, Human MAGEB2 (Melanoma-associated antigen B2) (human, UniProt O15479 1-319)
T1 construct: Intracellular antigen detected by IHC in FFPE material: CHO cells transfected with human MAGEB2 (mCherry vector with Myc/DDK tags, or ORF without tags)
T1 sequence: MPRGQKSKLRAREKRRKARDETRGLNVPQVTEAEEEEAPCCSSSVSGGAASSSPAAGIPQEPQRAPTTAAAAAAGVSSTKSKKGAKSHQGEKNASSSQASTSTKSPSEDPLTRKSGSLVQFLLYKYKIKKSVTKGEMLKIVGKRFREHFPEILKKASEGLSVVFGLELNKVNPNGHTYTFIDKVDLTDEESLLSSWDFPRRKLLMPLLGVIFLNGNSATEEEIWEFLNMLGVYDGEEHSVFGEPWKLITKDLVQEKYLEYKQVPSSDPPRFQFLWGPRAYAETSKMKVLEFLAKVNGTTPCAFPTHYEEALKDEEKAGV
Assay: IHC on FFPE KMM-1 cells (endogenous MAGEB2)
Method: FFPE samples were sectioned at 4 μm and mounted on positive charged glass slides. After mounting, paraffin sections were air-dried at room temperature. FFPE TMA samples were received as freshly sectioned and mounted on glass slides. […] Following this, slides were incubated with the Ventana Anti-Rabbit HQ (cat #760-4815) for 28 minutes at RT, Ventana Anti-HQ HRP (cat #760-4820) for 28 minutes at RT, and signals detected with Ventana DAB chromogen kit (cat #760-159) for 5 minutes at RT. […]
RESULT TYPE: IHC % Frequency (%)
Answers are plain numbers, in %.

Using the record for 1J15 (antibody, IgG1, V domains shown, Rabbit monoclonal IgG1; Tested as supernatant and as small batch purified antibody; also called MAGE-B2 (IJ15); anti-MAGEB2 antibody 1J15) VH: QSLEESGGGLVQPEGSLTLTCTAFGFTLNNYYICWVRQAPGKGLEWIACIDNANGRTYYASWAKGRFTISKTSSTTVTLQMTSLTAADTATYFCARSLSTPLWGPGTLVTVSS VL: DIVMTQTPASVEAAVGGTVTIKCQASQSISSYLSWYQQKPGQPPKLLIYRASTLASGVPSRFRGSGSGTQFTLTISDLECADAATYYCQSYDDSSDNNFFYGFGGGTEVVVR , report its IHC % Frequency.
70
